The measured values listed here are drawn from patent US20260083865A1.

- Target Under Test: Fc-fusion protein of human PSMA (hPSMA-Fc) (Homo sapiens)
- Construct: purchased Acro Biosystems PSA-H5264
- Sequence (Q04609 44-750 limits assumed): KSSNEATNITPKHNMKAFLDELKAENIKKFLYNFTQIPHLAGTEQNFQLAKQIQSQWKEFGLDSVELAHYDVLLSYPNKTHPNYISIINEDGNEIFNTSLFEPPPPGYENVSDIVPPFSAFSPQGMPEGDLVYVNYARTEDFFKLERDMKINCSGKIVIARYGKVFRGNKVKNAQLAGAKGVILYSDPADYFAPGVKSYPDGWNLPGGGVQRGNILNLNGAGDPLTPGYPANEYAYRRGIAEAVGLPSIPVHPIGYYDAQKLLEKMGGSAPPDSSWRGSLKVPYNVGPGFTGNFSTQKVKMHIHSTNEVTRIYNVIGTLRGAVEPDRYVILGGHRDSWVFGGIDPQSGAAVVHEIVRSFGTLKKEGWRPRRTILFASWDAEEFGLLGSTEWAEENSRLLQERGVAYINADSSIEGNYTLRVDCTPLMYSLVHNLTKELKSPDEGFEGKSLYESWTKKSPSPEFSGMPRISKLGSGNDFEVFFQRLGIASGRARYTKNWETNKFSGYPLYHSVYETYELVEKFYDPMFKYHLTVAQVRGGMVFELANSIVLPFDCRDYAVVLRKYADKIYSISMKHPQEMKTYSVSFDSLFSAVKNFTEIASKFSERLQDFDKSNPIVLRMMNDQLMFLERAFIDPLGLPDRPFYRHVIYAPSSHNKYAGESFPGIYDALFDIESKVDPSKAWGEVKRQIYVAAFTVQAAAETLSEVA
- Procedure Text: Surface plasmon resonance assay (Biacore T200, single cycle kinetic)
- Assay type: binding
- Condition Parameters: pKD category for PSMA SPR activity assay, hPSMA-Fc, 25° C.; read-out: pKD CAT (converted)
- Procedure: Surface plasmon resonance (SPR) studies were performed using a Biacore™ T200 SPR system. Briefly, polarized light is directed towards a gold-labeled sensor surface, and minimum intensity reflected light is detected. […] For each test compound, SPR raw data in the form of resonance units (RU) were plotted as sensorgrams using the Biacore™ T200 control software. […] The pKD value (negative decadic logarithm of dissociation constant) was calculated using Microsoft Excel.
Bridge positions count the residues as written; N and C are the ends. Square brackets hold non-standard residues; d marks the D form. Peptide text beside a SMILES is read from it. * marks the point of attachment. DOTA = O=C(O)CN1CCN(CC(=O)O)CCN(CC(=O)*)CCN(CC(=O)O)CC1; Tle = CC(C)(C)[C@H](N)C(=O)O; AEEA = NCCOCCOCC(=O)O; Aib = CC(C)(N)C(=O)O
Readout Name: Kd

Compound: C[C@@H](O)[C@H](NC(=O)[C@@H](NC(=O)[C@@H]1CSSC[C@H](NC(=O)[C@H](Cc2ccccc2)NC(=O)C(C)(C)NC(=O)[C@@H](NC(=O)COCCOCCNC(=O)CN2CCN(CC(=O)O)CCN(CC(=O)O)CCN(CC(=O)O)CC2)[C@@H](C)O)C(=O)N[C@@H](CCCCN)C(=O)N[C@@H](CCCNC(=N)N)C(=O)NC(C)(C)C(=O)N[C@@H](CC(N)=O)C(=O)N1)C(C)(C)C)C(N)=O [PSM-0505] ({DOTA-AEEA}-T[Aib]FCKR[Aib]NC[Tle]T-NH2; disulfide 4-9)
Target Under Test: Fc-fusion protein of human PSMA (hPSMA-Fc) (Homo sapiens)
Recorded Result: < 12.6 nM
